Every entry's value here was drawn from patent US11566007B2.

// reported pIC50 per item
Target: KRAS WT (Homo sapiens (Human), UniProt P01116+P62937)
Sequence (P01116-2 other isoform, or with tags, fused parts or gaps, one chain of several): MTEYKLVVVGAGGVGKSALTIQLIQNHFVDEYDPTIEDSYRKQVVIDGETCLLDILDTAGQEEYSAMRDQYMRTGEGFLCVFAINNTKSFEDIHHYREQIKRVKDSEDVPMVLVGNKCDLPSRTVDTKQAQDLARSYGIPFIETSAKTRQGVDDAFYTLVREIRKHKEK
Experiment: Ras-Raf (BRAF RBD) disruption / FRET / MOA assay, KRAS WT
Format: biochemical
Conditions: read-out: IC50* KRAS WT FRET data
pIC50: −log10 of the molar value.
Quantity: pIC50

C=CC(=O)N1CC2(CCN2C(=O)N(C)[C@H](C(=O)N[C@H]2Cc3nc(cs3)-c3ccc4c(c3)c(c(-c3cccnc3[C@H](C)OC)n4CC)CC(C)(C)COC(=O)[C@@H]3CCCN(N3)C2=O)C(C)C)C1 (atropisomer, axis not shown) = 6.00 to 7.00
C=CS(=O)(=O)N1CC[C@H](C(=O)N(C)[C@H](C(=O)N[C@H]2Cc3cc(O)cc(c3)-c3ccc4c(c3)c(c(-c3cncnc3)n4CC)CC(C)(C)COC(=O)[C@@H]3CCCN(N3)C2=O)C(C)C)C1 = 5.00 to 6.00
C=CC(=O)N1CCC12CCN(C(=O)N(C)[C@H](C(=O)N[C@H]1Cc3nc(cs3)-c3ccc4c(c3)c(c(-c3cccnc3[C@H](C)OC)n4CC)CC(C)(C)COC(=O)[C@@H]3CCCN(N3)C1=O)C(C)C)CC2 (atropisomer, axis not shown) = 6.00 to 7.00
C=CC(=O)N1CC[C@H](C(=O)N(C)[C@H](C(=O)N[C@H]2Cc3cc(O)cc(c3)-c3ccc4c(c3)c(c(-c3cnn5c3[C@@H](OC)CCC5)n4CC)CC(C)(C)COC(=O)[C@@H]3CCCN(N3)C2=O)C(C)C)C1 = 7.00 to 8.00

---

Measured pIC50 by item
Biological target: KRAS G12V (Homo sapiens (Human), UniProt P01116+P62937, G12V)
Sequence (P01116-2 other isoform, or with tags, fused parts or gaps G12V): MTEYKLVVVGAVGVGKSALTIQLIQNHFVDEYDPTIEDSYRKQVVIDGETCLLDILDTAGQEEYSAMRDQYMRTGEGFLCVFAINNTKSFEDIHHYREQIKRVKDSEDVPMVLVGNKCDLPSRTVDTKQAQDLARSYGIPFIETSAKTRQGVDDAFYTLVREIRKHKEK
Sequence (P62937 whole entry): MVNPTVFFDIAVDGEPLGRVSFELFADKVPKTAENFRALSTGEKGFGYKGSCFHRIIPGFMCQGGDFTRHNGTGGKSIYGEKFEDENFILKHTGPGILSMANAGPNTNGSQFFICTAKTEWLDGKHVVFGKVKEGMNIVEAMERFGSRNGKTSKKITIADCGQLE
Test: Ras-Raf (BRAF RBD) disruption / FRET / MOA assay, KRAS G12V
Type: biochemical
Details: read-out: IC50* KRAS G12V FRET data
pIC50: −log10 of the molar value.
Quantity: pIC50

C=CC(=O)N1CC[C@H](C(=O)N(C)[C@H](C(=O)N[C@H]2Cc3cc(CF)cc(c3)-c3ccc4c(c3)c(c(-c3cccnc3[C@H](C)OC)n4CC)CC(C)(C)COC(=O)[C@@H]3CCCN(N3)C2=O)C(C)C)C1 (atropisomer, axis not shown) = 5.00 to 6.00
C=CC(=O)N1CCN(C(=O)N(C)[C@H](C(=O)N[C@H]2Cc3nc(cs3)-c3ccc4c(c3)c(c(-c3cccnc3[C@H](C)OC)n4CC)CC(C)(C)COC(=O)[C@@H]3CCCN(N3)C2=O)C(C)C)[C@H]2CC[C@H]21 (atropisomer, axis not shown) = 7.00 to 8.00
C=CC(=O)N1CCOC2(C1)CN(C(=O)N(C)[C@H](C(=O)N[C@H]1Cc3nc(cs3)-c3ccc4c(c3)c(c(-c3cccnc3[C@H](C)OC)n4CC(F)(F)F)CC(C)(C)COC(=O)[C@@H]3CCCN(N3)C1=O)C(C)C)C2 (atropisomer, axis not shown) = 6.00 to 7.00
CCn1c(-c2cccnc2[C@H](C)OC)c2c3cc(ccc31)-c1csc(n1)C[C@H](NC(=O)[C@@H](COC1CN(C(=O)C#CC(C)(C)N(C)C)C1)OC)C(=O)N1CCC[C@H](N1)C(=O)OCC(C)(C)C2 (atropisomer, axis not shown) = 6.00 to 7.00
C=CC(=O)N1CC[C@H](C(=O)N(C)[C@H](C(=O)NC2C[C@H]3CN(CCCO3)c3ccc4c(c3)c(c(-c3cccnc3[C@H](C)OC)n4CC)CC(C)(C)COC(=O)[C@@H]3CCCN(N3)C2=O)C(C)C)C1 (single isomer, unassigned) = < 5.00
C=CC(=O)N1CC[C@H](C(=O)N(C)[C@H](C(=O)N[C@H]2Cc3coc(n3)-c3ccc4c(c3)c(c(-c3cccnc3[C@H](C)OC)n4CC)CC(C)(C)COC(=O)[C@@H]3CCCN(N3)C2=O)C(C)C)C1 (atropisomer, axis not shown) = 5.00 to 6.00
CCn1c(-c2cccnc2COC)c2c3cc(ccc31)-c1cc(O)cc(c1)C[C@H](NC(=O)[C@H](C(C)C)N(C)C(=O)[C@@H]1CCN(C(=O)C#CC(C)(C)N(C)C)C1)C(=O)N1CCC[C@H](N1)C(=O)OCC(C)(C)C2 = 6.00 to 7.00
CCn1c(-c2cccnc2[C@H](C)OC)c2c3cc(ccc31)-c1csc(n1)C[C@H](NC(=O)[C@H](C(C)C)N(C)C(=O)N1CCN(C(=O)C#CC(C)(C)N(C)C)CC1)C(=O)N1CCC[C@H](N1)C(=O)OCC(C)(C)C2 (atropisomer, axis not shown) = 7.00 to 8.00
C=CC(=O)N1CC[C@H](C(=O)N(C)[C@H](C(=O)N[C@H]2Cc3nc(cs3)-c3ccc4c(c3)c(c(-c3cc(C5=CCN(C)CC5)cnc3[C@H](C)OC)n4CC)CC(C)(C)COC(=O)[C@@H]3CCCN(N3)C2=O)C(C)C)C1 (atropisomer, axis not shown) = 5.00 to 6.00
CCn1c(-c2cccnc2[C@H](C)OC)c2c3cc(ccc31)-c1cc(CF)cc(c1)C[C@H](NC(=O)[C@H](C(C)C)N1CC[C@]3(CCN(C(=O)C#CC(C)(C)N(C)C)C3)C1=O)C(=O)N1CCC[C@H](N1)C(=O)OCC(C)(C)C2 (atropisomer, axis not shown) = 6.00 to 7.00
C=CC(=O)N1CC[C@H]2[C@@H](C1)CN2C(=O)N(C)[C@H](C(=O)N[C@H]1Cc2nc(cs2)-c2ccc3c(c2)c(c(-c2cccnc2[C@H](C)OC)n3CC)CC(C)(C)COC(=O)[C@@H]2CCCN(N2)C1=O)C(C)C (atropisomer, axis not shown) = 6.00 to 7.00
CO[C@@H](C)c1ncccc1-c1c2c3cc(ccc3n1CC(F)(F)F)-c1cccc(c1)C[C@H](NC(=O)[C@H](C(C)C)N(C)C(=O)N1CCC3(CC1)CN(C(=O)/C=C/CN(C)C)C3)C(=O)N1CCC[C@H](N1)C(=O)OCC(C)(C)C2 (atropisomer, axis not shown) = 6.00 to 7.00
CCn1c(-c2cccnc2[C@H](C)OC)c2c3cc(ccc31)-c1csc(n1)C[C@H](NC(=O)[C@H](C(C)C)N(C)C(=O)N(C)C1CN(C(=O)/C=C/[C@@H]3CCCN3C)C1)C(=O)N1CCC[C@H](N1)C(=O)OCC(C)(C)C2 (atropisomer, axis not shown) = 5.00 to 6.00
CCn1c(-c2cccnc2[C@H](C)OC)c2c3cc(ccc31)-c1csc(n1)C[C@H](NC(=O)[C@H](C(C)C)N(C)C(=O)N1C[C@H]3CN(C(=O)C#CC(C)(C)N(C)C)CC[C@H]31)C(=O)N1CCC[C@H](N1)C(=O)OCC(C)(C)C2 (atropisomer, axis not shown) = 6.00 to 7.00

---

Recorded IC50, one value per entry.
Molecular target: NRAS Q61K (Homo sapiens (Human), UniProt P01111+P62937, Q61K)
Sequence (P01111 whole entry Q61K, one chain of several): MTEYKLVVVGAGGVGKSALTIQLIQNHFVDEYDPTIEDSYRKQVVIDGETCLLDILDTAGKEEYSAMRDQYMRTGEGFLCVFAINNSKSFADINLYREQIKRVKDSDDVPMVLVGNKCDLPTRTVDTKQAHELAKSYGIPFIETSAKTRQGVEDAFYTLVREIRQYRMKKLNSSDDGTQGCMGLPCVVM
Assay: Ras-Raf (BRAF RBD) disruption / FRET / MOA assay, NRAS Q61K
Assay type: biochemical
Conditions: NRAS Q61K; Ras-Raf disruption/FRET/MOA assay; read-out: IC50* NRAS Q61K FRET data
Quantity: IC50

C=CC(=O)N1CCC[C@@H]2CN(C(=O)N(C)[C@H](C(=O)N[C@H]3Cc4nc(cs4)-c4ccc5c(c4)c(c(-c4cccnc4[C@H](C)OC)n5CC)CC(C)(C)COC(=O)[C@@H]4CCCN(N4)C3=O)C(C)C)C[C@@H]21 (atropisomer, axis not shown) = 0.1 to 1 µM
C=CC(=O)N1CCO[C@H]2CN(C(=O)N(C)[C@H](C(=O)N[C@H]3Cc4coc(n4)-c4ccc5c(c4)c(c(-c4cccnc4[C@H](C)OC)n5CC(F)(F)F)CC(C)(C)COC(=O)[C@@H]4CCCN(N4)C3=O)C(C)C)C[C@H]21 (atropisomer, axis not shown) = 0.1 to 1 µM
C=CC(=O)N1CC2(CCN2C(=O)N(C)[C@H](C(=O)N[C@H]2Cc3nc(n(C)n3)-c3ccc4c(c3)c(c(-c3cccnc3[C@H](C)OC)n4CC)CC(C)(C)COC(=O)[C@@H]3CCCN(N3)C2=O)C(C)C)C1 (atropisomer, axis not shown) = 0.01 to 0.1 µM
C=CC(=O)N1CC[C@H](C(=O)N(C)[C@H](C(=O)N[C@H]2Cc3cccc(n3)-c3ccc4c(c3)c(c(-c3cccnc3[C@H](C)OC)n4CC)CC(C)(C)COC(=O)[C@@H]3CCCN(N3)C2=O)C(C)C)C1 (atropisomer, axis not shown) = 1 to 10 µM
CO[C@@H](C)c1ncccc1-c1c2c3cc(ccc3n1CC(F)(F)F)-c1csc(n1)C[C@H](NC(=O)[C@H](C(C)C)N(C)C(=O)N1CCN(C(=O)/C=C/CN(C)C)C3(CC3)C1)C(=O)N1CCC[C@H](N1)C(=O)OCC(C)(C)C2 (atropisomer, axis not shown) = 0.01 to 0.1 µM
CCn1c(-c2cccnc2[C@H](C)OC)c2c3cc(ccc31)-c1cccc(c1)C[C@H](NC(=O)[C@H](C(C)C)N1CC[C@]3(CCN(C(=O)C#C[C@H]4COCCN4C)C3)C1=O)C(=O)N1CCC[C@H](N1)C(=O)OCC(C)(C)C2 (atropisomer, axis not shown) = > 10 µM
C=CC(=O)N1CC[C@H](C(=O)N(C)[C@H](C(=O)N[C@H]2Cc3cccc(c3)-c3ccc4c(c3)c(c(-c3cccnc3[C@H](C)OC)n4CC)CC(C)(C)COC(=O)[C@@H]3CCCN(N3)C2=O)[C@@H](C)C(F)(F)F)C1 (atropisomer, axis not shown) = 1 to 10 µM
C=CC(=O)N1CCOC2(CCN(C(=O)N(C)[C@H](C(=O)N[C@H]3Cc4cc(CF)cc(c4)-c4ccc5c(c4)c(c(-c4cccnc4[C@H](C)OC)n5CC(F)(F)F)CC(C)(C)COC(=O)[C@@H]4CCCN(N4)C3=O)C(C)C)CC2)C1 (atropisomer, axis not shown) = 0.1 to 1 µM
C=CC(=O)N1CCC[C@]12CCN(C(=O)N(C)[C@H](C(=O)N[C@H]1Cc3nc(cs3)-c3ccc4c(c3)c(c(-c3cccnc3[C@H](C)OC)n4CC)CC(C)(C)COC(=O)[C@@H]3CCCN(N3)C1=O)C(C)C)C2 (atropisomer, axis not shown) = 0.1 to 1 µM
C=CC(=O)N1CC(OC[C@H](C(=O)N[C@H]2Cc3cc(cc(C(F)F)c3)-c3ccc4c(c3)c(c(-c3cccnc3[C@H](C)OC)n4CC)CC(C)(C)COC(=O)[C@@H]3CCCN(N3)C2=O)C(C)C)C1 (atropisomer, axis not shown) = > 10 µM
C=CC(=O)N1CC[C@H](C(=O)N(C)[C@H](C(=O)N[C@H]2Cc3cc(O)cc(c3)-c3ccc4c(c3)c(c(-c3ccc(N5CCN(C)CC5)nc3)n4CC)CC(C)(C)COC(=O)[C@@H]3CCCN(N3)C2=O)C(C)C)C1 = 1 to 10 µM
C=CC(=O)N1CC[C@H](C(=O)N(C)[C@H](C(=O)N[C@H]2Cc3cccc(c3)-c3ccc4c(c3)c(c(-c3cc(CN(C)C)cnc3[C@H](C)OC)n4CC)CC(C)(C)COC(=O)[C@@H]3CCCN(N3)C2=O)C(C)C)C1 (atropisomer, axis not shown) = 1 to 10 µM
CCn1c(-c2cccnc2)c2c3cc(ccc31)-c1csc(c1)C[C@H](NC(=O)[C@H](C(C)C)N(C)C(=O)[C@H]1CCN(C(=O)C#CCN3CCOCC3)C1)C(=O)N1CCC[C@H](N1)C(=O)OCC(C)(C)C2 = > 10 µM
CO[C@@H](C)c1ncccc1-c1c2c3cc(ccc3n1CC(F)(F)F)-c1cnc(o1)C[C@H](NC(=O)[C@H](C(C)C)N(C)C(=O)[C@H]1CCN(C(=O)C#CC(C)(C)N(C)C)C1)C(=O)N1CCC[C@H](N1)C(=O)OCC(C)(C)C2 (atropisomer, axis not shown) = > 10 µM
CCn1c(-c2cccnc2[C@H](C)OC)c2c3cc(ccc31)-c1csc(n1)C[C@H](NC(=O)[C@H](C(C)C)N(C)C(=O)N1CCN(C(=O)/C=C/CN(C)C)C3(CC3)C1)C(=O)N1CCC[C@H](N1)C(=O)OCC(C)(C)C2 (atropisomer, axis not shown) = 0.01 to 0.1 µM
